Data credit: the RNAGym collection of RNA variant scans (doi:10.1002/anie.201605470)

Entries and their self-cleavage
B1: Osa-1-4 twister ribozyme (parent)
chain: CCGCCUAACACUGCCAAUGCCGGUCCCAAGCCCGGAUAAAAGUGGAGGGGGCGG

Variants of: B1
Method Summary: self-cleavage, relative activity (ratio to wild type); higher = more cleavage; co-transcriptional
Please give the numeric answer without any surrounding text.

>  <Sequence>
CCGCCUAACACUGCCAAUGCCGGUCCCACGCCCGGAUAAAAUUGGAGGGGGCGG [A29C G42U]

>  <self-cleavage>
0.01

$$$$
>  <Sequence>
CCGCCUAACACUGCCAAUGCCGGACCAAAGCCCGGAUAAAAGUGGAGGGGGCGG [C27A U24A]

>  <self-cleavage>
0.04

$$$$
>  <Sequence>
CCGCCUAACACUGCCAAUUCCGGUCCCAAGCCCGGAUAAAAGUGGAGGGGCCGG [G19U G51C]

>  <self-cleavage>
0.07

$$$$
>  <Sequence>
CCGCCUAACACUGCCAAUGCCGGUUCAAAGCCCGGAUAAAAGUGGAGGGGGCGG [C25U C27A]

>  <self-cleavage>
0.06

$$$$
>  <Sequence>
CCGCCUAACACUGCCUAUGCCGGUCCCAAGCCCGGAUAAGAGUGGAGGGGGCGG [A16U A40G]

>  <self-cleavage>
0.38

$$$$

Entry CCGCCUAACACUGCCGAUGCCGGUCCCAAGCCCGGAUAGAAGUGGAGGGGGCGG [A16G A39G] , self-cleavage reported as 0.9

// sample CCGCCUAACACUGCCAAUGCCGGUCCCAAGCCCGUAUAAAAGUGGAGAGGGCGG [G35U G48A] , its self-cleavage was 0.09

Kindly note the recorded self-cleavage for CCGCCUGACACUGCCAAUGCCGGUGCCAAGCCCGGAUAAAAGUGGAGGGGGCGG [A7G C25G] , which is 0.06

Note to self: self-cleavage recorded for CCGCCUAACACUGCCAAUGCCGGUCCCAAGCCCGGAUAUAAAUGGAGGGGGCGG [A39U G42A] was 0.17

Kindly note the recorded self-cleavage for CCGCCUAACACUGCCAAUGCCGGUCCCAAGCCCAGAUAAAAUUGGAGGGGGCGG [G34A G42U] , which is 0.05

The variant listed as CCGCCUAACACUGCCAAUUCCAGUCCCAAGCCCGGAUAAAAGUGGAGGGGGCGG [G19U G22A] shows self-cleavage equal to 0.32

Memo: CCGCCUAACACUACCAAUACCGGUCCCAAGCCCGGAUAAAAGUGGAGGGGGCGG [G13A G19A] , reported self-cleavage: 0.08

CCGCCUAACACUGCCAAUGCCGGUCCCAAGCCCGGAUAAAAAUGGAGGGGGCGC [G42A G54C] has a reported self-cleavage of 0.82

GET /value?item= CCGCCUAACACUGCCAAUGGCGGUCCCAAGCCCAGAUAAAAGUGGAGGGGGCGG [C20G G34A] &field=self-cleavage returns 0.08

Input CCGCCUAACACUGCCAAUGCCGCUCCCAAGCCCGGAUAAAAGUGGAGGGGGCGC [G23C G54C] . Output self-cleavage: 0.05
